Data provenance is patent US10246425B2.

Tested on: human bronchial epithelial (HBE) cells
test-description: Airway surface liquid drug (ASL) clearance and metabolism by human airway epithelium
Type: in vitro ADME
condition-details: Table 4: HBE cells, 25 μL of 25 μM apical, 2 h; mean ± SD
hey, just use label 1 if measured % of Initial Apical Mass on Basolateral Side (2 h) is less than 2%, otherwise label 0

Please review the entries below; each comes with its answer.
smiles-string	tgt	assigned-label
CCCCCCN(CCCN[C@@H](CCc1ccc2cc(CCCCNC(=N)NC(=O)c3nc(Cl)c(N)nc3N)ccc2c1)C(N)=O)C[C@H](O)[C@@H](O)[C@H](O)[C@H](O)CO	human bronchial epithelial (HBE) cells	label 1
N=C(NCCCCc1ccc(CC[C@H](NCCCN(C[C@H](O)[C@@H](O)[C@H](O)[C@H](O)CO)C[C@H](O)[C@@H](O)[C@H](O)[C@H](O)CO)C(N)=O)cc1)NC(=O)c1nc(Cl)c(N)nc1N	human bronchial epithelial (HBE) cells	label 1
Cl.N=C(NCCCCc1ccc(CC[C@H](NCCCN(C[C@H](O)[C@@H](O)[C@H](O)[C@H](O)CO)C[C@H](O)[C@@H](O)[C@H](O)[C@H](O)CO)C(N)=O)c2ccccc12)NC(=O)c1nc(Cl)c(N)nc1N	human bronchial epithelial (HBE) cells	label 0
N=C(NCCCCc1ccc(C[C@H](NCCCN(C[C@H](O)[C@@H](O)[C@H](O)[C@H](O)CO)C[C@H](O)[C@@H](O)[C@H](O)[C@H](O)CO)C(N)=O)c2c1CCCC2)NC(=O)c1nc(Cl)c(N)nc1N	human bronchial epithelial (HBE) cells	label 1

We now examine a further compound.
query: Find out if reported % of Initial Apical Mass on Basolateral Side (2 h) for N=C(NCCCCc1ccc2cc(C[C@H](NCCCN(C[C@H](O)[C@@H](O)[C@H](O)[C@H](O)CO)C[C@H](O)[C@@H](O)[C@H](O)[C@H](O)CO)C(N)=O)ccc2c1)NC(=O)c1nc(Cl)c(N)nc1N is less than 2%
result: label 0

---

Test system: human bronchial epithelial (HBE) cells
test-description: Airway surface liquid drug (ASL) clearance and metabolism by human airway epithelium
Format: in vitro ADME
condition-details: Table 4: HBE cells, 25 μL of 25 μM apical, 2 h; mean ± SD
Counter-ions that a name gives are not always drawn.
measurement-name: % of Apical Mass as Metabolites (2 h)

Solved cases (5 shown):
compound	meas-value
N=C(NCCCCc1ccc2cc(C[C@H](NCCCN(C[C@H](O)[C@@H](O)[C@H](O)[C@H](O)CO)C[C@H](O)[C@@H](O)[C@H](O)[C@H](O)CO)C(N)=O)ccc2c1)NC(=O)c1nc(Cl)c(N)nc1N [X-d]	None
CCCCCCN(CCCN[C@@H](Cc1ccc(CCCCNC(=N)NC(=O)c2nc(Cl)c(N)nc2N)c2ccccc12)C(N)=O)C[C@H](O)[C@@H](O)[C@H](O)[C@H](O)CO [VIII-d]	None
CCCCCCN(CCCN[C@@H](CCc1ccc(CCCCNC(=N)NC(=O)c2nc(Cl)c(N)nc2N)c2ccccc12)C(N)=O)C[C@H](O)[C@@H](O)[C@H](O)[C@H](O)CO [VI-d, hydrochloride]	None
N=C(NCCCCc1ccc(CC[C@H](NCCCN(C[C@H](O)[C@@H](O)[C@H](O)[C@H](O)CO)C[C@H](O)[C@@H](O)[C@H](O)[C@H](O)CO)C(N)=O)cc1)NC(=O)c1nc(Cl)c(N)nc1N [II-d]	None
CCCCCCN(CCCN[C@@H](Cc1ccc2cc(CCCCNC(=N)NC(=O)c3nc(Cl)c(N)nc3N)ccc2c1)C(N)=O)C[C@H](O)[C@@H](O)[C@H](O)[C@H](O)CO [IX-m]	None

Below: the item to evaluate.
query: Given the entry N=C(NCCCCc1ccc(C[C@H](NCCCN(C[C@H](O)[C@@H](O)[C@H](O)[C@H](O)CO)C[C@H](O)[C@@H](O)[C@H](O)[C@H](O)CO)C(N)=O)c2c1CCCC2)NC(=O)c1nc(Cl)c(N)nc1N [XI-cc] , report its measured % of Apical Mass as Metabolites (2 h).
result: None

---

System: human bronchial epithelial (HBE) cells
test-description: Airway surface liquid drug (ASL) clearance and metabolism by human airway epithelium
Assay type: in vitro ADME
condition-details: Table 4: HBE cells, 25 μL of 25 μM apical, 2 h; mean ± SD
measurement-name: % of Apical Mass as Metabolites (2 h)

Recorded % of Apical Mass as Metabolites (2 h), per entry:
molecule	% of Apical Mass as Metabolites (2 h)
N=C(NCCCCc1ccc(C[C@H](NCCCN(C[C@H](O)[C@@H](O)[C@H](O)[C@H](O)CO)C[C@H](O)[C@@H](O)[C@H](O)[C@H](O)CO)C(N)=O)c2ccccc12)NC(=O)c1nc(Cl)c(N)nc1N	None
N=C(NCCCCc1ccc(OC[C@H](N)C(N)=O)cc1)NC(=O)c1nc(Cl)c(N)nc1N [Comparative Example 1, reference compound]	83.0 ± 3.5%
CCCCCCN(CCCN[C@@H](CCc1ccc2cc(CCCCNC(=N)NC(=O)c3nc(Cl)c(N)nc3N)ccc2c1)C(N)=O)C[C@H](O)[C@@H](O)[C@H](O)[C@H](O)CO	None
N=C(NCCCCc1ccc(C[C@H](NCCCN(C[C@H](O)[C@@H](O)[C@H](O)[C@H](O)CO)C[C@H](O)[C@@H](O)[C@H](O)[C@H](O)CO)C(N)=O)cc1)NC(=O)c1nc(Cl)c(N)nc1N	None
Cl.N=C(NCCCCc1ccc(CC[C@H](NCCCN(C[C@H](O)[C@@H](O)[C@H](O)[C@H](O)CO)C[C@H](O)[C@@H](O)[C@H](O)[C@H](O)CO)C(N)=O)c2ccccc12)NC(=O)c1nc(Cl)c(N)nc1N	none
CCCCCCN(CCCN[C@@H](CCc1ccc(CCCCNC(=N)NC(=O)c2nc(Cl)c(N)nc2N)cc1)C(N)=O)C[C@H](O)[C@@H](O)[C@H](O)[C@H](O)CO	none
CCCCCCN(CCCN[C@@H](Cc1ccc(CCCCNC(=N)NC(=O)c2nc(Cl)c(N)nc2N)cc1)C(N)=O)C[C@H](O)[C@@H](O)[C@H](O)[C@H](O)CO	None
N=C(NCCCCc1ccc2cc(CC[C@H](NCCCN(C[C@H](O)[C@@H](O)[C@H](O)[C@H](O)CO)C[C@H](O)[C@@H](O)[C@H](O)[C@H](O)CO)C(N)=O)ccc2c1)NC(=O)c1nc(Cl)c(N)nc1N	None

query: Fill blank: measured % of Apical Mass as Metabolites (2 h) of the molecule N=C(NCCCCc1ccc(CC[C@H](NCCCN(C[C@H](O)[C@@H](O)[C@H](O)[C@H](O)CO)C[C@H](O)[C@@H](O)[C@H](O)[C@H](O)CO)C(N)=O)c2c1CCCC2)NC(=O)c1nc(Cl)c(N)nc1N is ____.
result: None

query: Quick one: % of Apical Mass as Metabolites (2 h) for CCCCCCN(CCCN[C@@H](Cc1ccc(CCCCNC(=N)NC(=O)c2nc(Cl)c(N)nc2N)c2c1CCCC2)C(N)=O)C[C@H](O)[C@@H](O)[C@H](O)[C@H](O)CO ?
result: None

---

Tested on: human bronchial epithelial (HBE) cells
test-description: Airway surface liquid drug (ASL) clearance and metabolism by human airway epithelium
Type: in vitro ADME
condition-details: Table 4: HBE cells, 25 μL of 25 μM apical, 2 h; mean ± SD
Structures can show the parent of a compound that is named as a salt.
Where % of Initial Apical Mass on Basolateral Side (2 h) equals or exceeds 4%, the correct label is met; where it does not, the label is not met.

compound	assigned-label
N=C(NCCCCc1ccc(CC[C@H](NCCCN(C[C@H](O)[C@@H](O)[C@H](O)[C@H](O)CO)C[C@H](O)[C@@H](O)[C@H](O)[C@H](O)CO)C(N)=O)c2c1CCCC2)NC(=O)c1nc(Cl)c(N)nc1N [XV-dd]	not met

query: In plain terms: is recorded % of Initial Apical Mass on Basolateral Side (2 h) at least 4% for CCCCCCN(CCCN[C@@H](CCc1ccc(CCCCNC(=N)NC(=O)c2nc(Cl)c(N)nc2N)c2ccccc12)C(N)=O)C[C@H](O)[C@@H](O)[C@H](O)[C@H](O)CO [VI-d, hydrochloride] ?
result: not met

query: Say whether CCCCCCN(CCCN[C@@H](CCc1ccc(CCCCNC(=N)NC(=O)c2nc(Cl)c(N)nc2N)cc1)C(N)=O)C[C@H](O)[C@@H](O)[C@H](O)[C@H](O)CO [III-d] shows % of Initial Apical Mass on Basolateral Side (2 h) of 4% or more.
result: not met

query: Identify whether the reported % of Initial Apical Mass on Basolateral Side (2 h) of the following compound is 4% or greater: N=C(NCCCCc1ccc(C[C@H](NCCCN(C[C@H](O)[C@@H](O)[C@H](O)[C@H](O)CO)C[C@H](O)[C@@H](O)[C@H](O)[C@H](O)CO)C(N)=O)cc1)NC(=O)c1nc(Cl)c(N)nc1N [XVI-ee]
result: met

query: Please check the record CCCCCCN(CCCN[C@@H](Cc1ccc(CCCCNC(=N)NC(=O)c2nc(Cl)c(N)nc2N)c2c1CCCC2)C(N)=O)C[C@H](O)[C@@H](O)[C@H](O)[C@H](O)CO [XII-d] and state if its % of Initial Apical Mass on Basolateral Side (2 h) is at or above 4%.
result: met

query: Quick check, % of Initial Apical Mass on Basolateral Side (2 h) >= 4%? N=C(NCCCCc1ccc(C[C@H](NCCCN(C[C@H](O)[C@@H](O)[C@H](O)[C@H](O)CO)C[C@H](O)[C@@H](O)[C@H](O)[C@H](O)CO)C(N)=O)c2ccccc12)NC(=O)c1nc(Cl)c(N)nc1N [VII-ee]
result: met
